# protocol text: Rat pharmacokinetic (PK) study, oral suspension; also: test concentration or dose not given here
# Type: in vivo, male rats (Sprague Dawley)
# conditions used: rat, plasma; parent thiazole compound of the example; male Sprague Dawley rats, oral suspension
parameter: Cmax

[[record]]
molecule = "Cc1oc2c(c1CC(=O)Nc1nc(-c3ccc(OC(F)(F)F)c(Cl)c3)cs1)c(=O)n(C)c(=O)n2C [parent of Example 25, reference compound]"
parameter = "Cmax"
result = "< 250 ng/mL"

[[record]]
molecule = "Cn1c(=O)c2c(CC(=O)Nc3nc(-c4ccc(F)c(C(F)(F)F)c4F)cs3)csc2n(C)c1=O [parent of Example 10, reference compound]"
parameter = "Cmax"
result = "< 250 ng/mL"

[[record]]
molecule = "Cn1nc2c(c1CC(=O)Nc1nc(-c3ccc(F)c(C(F)(F)F)c3F)cs1)c(=O)n(C)c(=O)n2C [parent of Example 28, reference compound]"
parameter = "Cmax"
result = "< 500 ng/mL"

[[record]]
molecule = "Cn1c(=O)c2c(CC(=O)Nc3nc(-c4ccc(C(F)(F)F)c(F)c4F)cs3)nsc2n(C)c1=O [parent of Example 31, reference compound]"
parameter = "Cmax"
result = "< 250 ng/mL"

